As shown below, each of these compounds has a reported pIC50 value.
Target: Alpha-ketoglutarate-dependent dioxygenase FTO (Homo sapiens)
Sequence (Q9C0B1 whole entry): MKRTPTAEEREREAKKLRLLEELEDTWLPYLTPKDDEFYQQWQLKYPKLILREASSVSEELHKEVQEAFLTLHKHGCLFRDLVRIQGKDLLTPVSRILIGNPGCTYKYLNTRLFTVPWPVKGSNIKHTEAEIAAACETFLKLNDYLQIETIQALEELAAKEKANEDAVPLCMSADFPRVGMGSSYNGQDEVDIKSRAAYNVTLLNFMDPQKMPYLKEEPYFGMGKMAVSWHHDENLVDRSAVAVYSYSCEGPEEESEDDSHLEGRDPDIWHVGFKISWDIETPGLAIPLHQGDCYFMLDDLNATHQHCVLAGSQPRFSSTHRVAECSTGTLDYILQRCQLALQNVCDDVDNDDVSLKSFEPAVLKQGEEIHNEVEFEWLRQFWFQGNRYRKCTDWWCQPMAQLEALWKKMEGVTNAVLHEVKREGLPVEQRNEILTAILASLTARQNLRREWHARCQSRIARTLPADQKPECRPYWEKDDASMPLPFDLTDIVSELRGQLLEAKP
Please express pIC50 as -log10 of the molar concentration.

Some compounds with recorded pIC50:
moleculesmiles=NS(=O)(=O)c1ccc(O)c2ncccc12 measurementname=pIC50 quantitativeresult=4.64
moleculesmiles=O=C(O)CC[C@H](O)C(=O)O measurementname=pIC50 quantitativeresult=3.49
moleculesmiles=O=C(O)c1ccc(O)c2ncccc12 measurementname=pIC50 quantitativeresult=5.48

**Query** // lookup pIC50 for Nc1c(S(=O)(=O)O)cc(Br)c2c1C(=O)c1ccccc1C2=O
**Result** 4.96
